# Tested on: Hepatotoxicity
# TEST DESCRIPTION: FDA HLAED, liver enzyme composite activity
# EXPERIMENTAL CONDITIONS: human
Recorded measurements of Composite Activity - Active, one per entry

>  <COMPOUND>
CC(C)(C)NCC(O)c1ccc(O)c(CO)n1 (stereo not given) [PIRBUTEROL]

>  <TEST SYSTEM>
Hepatotoxicity

>  <Composite Activity - Active>
0

$$$$
>  <COMPOUND>
O=C(O)[C@@H](S)[C@@H](S)C(=O)O

>  <TEST SYSTEM>
Hepatotoxicity

>  <Composite Activity - Active>
4

$$$$
>  <COMPOUND>
O=c1[nH]cnc2c1ncn2[C@H]1CC[C@@H](CO)O1 [DIDANOSINE]

>  <TEST SYSTEM>
Hepatotoxicity

>  <Composite Activity - Active>
3

$$$$
>  <COMPOUND>
O=C(CCCN1CCC(O)(c2ccc(Cl)cc2)CC1)c1ccc(F)cc1 [HALOPERIDOL]

>  <TEST SYSTEM>
Hepatotoxicity

>  <Composite Activity - Active>
0

$$$$
>  <COMPOUND>
CC1=C(CC(=O)O)c2cc(F)ccc2/C1=C\c1ccc([S+](C)[O-])cc1 (stereo not given)

>  <TEST SYSTEM>
Hepatotoxicity

>  <Composite Activity - Active>
0

$$$$

###

# Test system: Hepatotoxicity
# TEST DESCRIPTION: FDA HLAED, gamma-glutamyl transferase (GGT) increase
# EXPERIMENTAL CONDITIONS: human
READOUT: GGT Increase - Activity Score

>  <COMPOUND>
CN(Cc1ccc(C(C)(C)C)cc1)Cc1cccc2ccccc12

>  <READOUT>
GGT Increase - Activity Score

>  <RESULT>
Inactive

$$$$
>  <COMPOUND>
CNC(=C[N+](=O)[O-])NCCSCc1ccc(CN(C)C)o1

>  <READOUT>
GGT Increase - Activity Score

>  <RESULT>
Inactive

$$$$
>  <COMPOUND>
CC(=O)CCCCn1c(=O)c2c(ncn2C)n(C)c1=O

>  <READOUT>
GGT Increase - Activity Score

>  <RESULT>
Inactive

$$$$
>  <COMPOUND>
CCCC(=O)Nc1ccc(OCC(O)CNC(C)C)c(C(C)=O)c1 (stereo unspecified)

>  <READOUT>
GGT Increase - Activity Score

>  <RESULT>
Inactive

$$$$
>  <COMPOUND>
COc1cccc(C2(O)CCCCC2CN(C)C)c1 (stereo unspecified)

>  <READOUT>
GGT Increase - Activity Score

>  <RESULT>
Inactive

$$$$
>  <COMPOUND>
COc1cc(NCc2ccc3nc(N)nc(N)c3c2C)cc(OC)c1OC [TRIMETREXATE]

>  <READOUT>
GGT Increase - Activity Score

>  <RESULT>
Inactive

$$$$
>  <COMPOUND>
Cc1ccc(Cl)c(Nc2ccccc2C(=O)O)c1Cl

>  <READOUT>
GGT Increase - Activity Score

>  <RESULT>
Inactive

$$$$
>  <COMPOUND>
COc1cc([C@@H]2c3cc4c(cc3[C@@H](O[C@@H]3O[C@@H]5CO[C@@H](c6cccs6)O[C@H]5[C@H](O)[C@H]3O)[C@H]3COC(=O)[C@H]23)OCO4)cc(OC)c1O [TENIPOSIDE]

>  <READOUT>
GGT Increase - Activity Score

>  <RESULT>
Inactive

$$$$
>  <COMPOUND>
Clc1ccc(C(Cn2ccnc2)OCc2ccsc2Cl)c(Cl)c1 (stereo unspecified)

>  <READOUT>
GGT Increase - Activity Score

>  <RESULT>
Inactive

$$$$
>  <COMPOUND>
Nc1cc(N2CCCCC2)nc(N)[n+]1[O-]

>  <READOUT>
GGT Increase - Activity Score

>  <RESULT>
Inactive

$$$$
>  <COMPOUND>
CC(N)C12CC3CC(CC(C3)C1)C2 (stereo unspecified)

>  <READOUT>
GGT Increase - Activity Score

>  <RESULT>
Inactive

$$$$
>  <COMPOUND>
CN1CCCC(n2nc(Cc3ccc(Cl)cc3)c3ccccc3c2=O)CC1 (stereo unspecified)

>  <READOUT>
GGT Increase - Activity Score

>  <RESULT>
Inactive

$$$$
>  <COMPOUND>
CCOC(=O)c1ccc(C#Cc2ccc3c(c2)C(C)(C)CCS3)nc1

>  <READOUT>
GGT Increase - Activity Score

>  <RESULT>
Inactive

$$$$
>  <COMPOUND>
COc1ccc(CC2c3cc(OC)c(OC)cc3CC[N+]2(C)CCC(=O)OCCCCCOC(=O)CC[N+]2(C)CCc3cc(OC)c(OC)cc3C2Cc2ccc(OC)c(OC)c2)cc1OC (stereo unspecified)

>  <READOUT>
GGT Increase - Activity Score

>  <RESULT>
Inactive

$$$$
>  <COMPOUND>
O=c1n(CCCN2CCN(c3cccc(Cl)c3)CC2)nc2ccccn12

>  <READOUT>
GGT Increase - Activity Score

>  <RESULT>
Inactive

$$$$
>  <COMPOUND>
CC(=O)O[C@H]1C[C@@H]2CC[C@@H]3[C@H](CC[C@@]4(C)[C@H]3C[C@H]([N+]3(C)CCCCC3)[C@@H]4OC(C)=O)[C@@]2(C)C[C@@H]1N1CCCCC1.[Br-] [VECURONIUM BROMIDE]

>  <READOUT>
GGT Increase - Activity Score

>  <RESULT>
Inactive

$$$$
>  <COMPOUND>
C[C@]12CC[C@H]3[C@@H](CCC4=CC(=O)CC[C@@]43C)[C@@H]1CC[C@@H]2OC(=O)Cc1ccccc1 [TESTOSTERONE PHENYLACETATE]

>  <READOUT>
GGT Increase - Activity Score

>  <RESULT>
Inactive

$$$$
>  <COMPOUND>
CNC(=C[N+](=O)[O-])NCCSCc1csc(CN(C)C)n1

>  <READOUT>
GGT Increase - Activity Score

>  <RESULT>
Inactive

$$$$
>  <COMPOUND>
CC1COc2c(N3CCN(C)CC3)c(F)cc3c(=O)c(C(=O)O)cn1c23 (stereo unspecified)

>  <READOUT>
GGT Increase - Activity Score

>  <RESULT>
Inactive

$$$$
>  <COMPOUND>
CC(C)COCC(CN(Cc1ccccc1)c1ccccc1)N1CCCC1 (stereo unspecified)

>  <READOUT>
GGT Increase - Activity Score

>  <RESULT>
Inactive

$$$$
